Molecular target: HEK293 cells expressing NR1/NR2B (Homo sapiens (Human), UniProt Q05586+Q13224)
Sequence (Q13224 27-1484, other chains not shown): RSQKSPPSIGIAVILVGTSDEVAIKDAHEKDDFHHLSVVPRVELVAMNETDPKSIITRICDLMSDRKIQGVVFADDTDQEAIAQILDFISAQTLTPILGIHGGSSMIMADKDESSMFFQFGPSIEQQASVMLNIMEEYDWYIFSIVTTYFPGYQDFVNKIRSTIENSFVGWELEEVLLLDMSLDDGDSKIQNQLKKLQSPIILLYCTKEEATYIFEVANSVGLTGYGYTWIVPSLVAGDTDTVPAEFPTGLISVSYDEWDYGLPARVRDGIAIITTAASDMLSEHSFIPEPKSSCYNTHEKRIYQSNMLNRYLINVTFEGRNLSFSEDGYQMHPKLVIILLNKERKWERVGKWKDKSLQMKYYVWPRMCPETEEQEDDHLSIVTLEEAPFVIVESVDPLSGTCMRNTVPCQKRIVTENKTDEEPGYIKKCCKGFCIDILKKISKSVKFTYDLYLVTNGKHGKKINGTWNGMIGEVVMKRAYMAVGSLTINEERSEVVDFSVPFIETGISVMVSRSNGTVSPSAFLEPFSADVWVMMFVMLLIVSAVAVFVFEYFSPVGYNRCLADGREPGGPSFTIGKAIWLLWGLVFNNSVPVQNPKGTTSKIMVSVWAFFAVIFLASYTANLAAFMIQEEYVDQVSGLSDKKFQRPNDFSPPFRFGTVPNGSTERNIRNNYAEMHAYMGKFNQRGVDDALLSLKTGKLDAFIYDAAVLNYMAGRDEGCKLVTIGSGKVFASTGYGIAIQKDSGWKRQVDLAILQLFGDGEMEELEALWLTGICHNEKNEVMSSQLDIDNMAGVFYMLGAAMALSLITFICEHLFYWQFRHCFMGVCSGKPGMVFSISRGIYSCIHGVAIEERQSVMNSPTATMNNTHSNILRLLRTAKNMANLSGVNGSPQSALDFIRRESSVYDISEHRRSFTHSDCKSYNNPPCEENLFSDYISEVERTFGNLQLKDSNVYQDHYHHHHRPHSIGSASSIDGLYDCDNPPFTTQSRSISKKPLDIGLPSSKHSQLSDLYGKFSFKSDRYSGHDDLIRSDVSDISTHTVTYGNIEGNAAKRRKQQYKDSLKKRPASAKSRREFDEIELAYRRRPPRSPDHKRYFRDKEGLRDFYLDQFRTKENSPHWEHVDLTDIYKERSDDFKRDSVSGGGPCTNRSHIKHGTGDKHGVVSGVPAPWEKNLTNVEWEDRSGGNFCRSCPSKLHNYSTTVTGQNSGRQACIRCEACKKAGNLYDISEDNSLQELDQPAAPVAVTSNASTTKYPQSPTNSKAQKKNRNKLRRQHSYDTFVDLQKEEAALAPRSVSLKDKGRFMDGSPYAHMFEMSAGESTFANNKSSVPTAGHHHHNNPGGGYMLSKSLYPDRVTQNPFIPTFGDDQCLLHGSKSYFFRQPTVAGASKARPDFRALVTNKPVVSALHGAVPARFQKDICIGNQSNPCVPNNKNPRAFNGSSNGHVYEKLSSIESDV
Experiment: NR2B NAM Assay (FDSS Ca2+ influx cell assay)
Conditions: NR2B NAM assay, class of inhibitory concentration; read-out: Activity Category
pIC50: −log10 of the molar value.
Listing of entries alongside the reported pIC50.

>  <STRUCTURE>
O=C(CN1C[C@H]2C[C@H](Sc3ccc(F)cc3)C[C@H]2C1)c1ccc(O)cc1

>  <TESTED_TARGET>
HEK293 cells expressing NR1/NR2B (Homo sapiens (Human), UniProt Q05586+Q13224)

>  <pIC50>
> 7.00

$$$$
>  <STRUCTURE>
N#Cc1ccc(O[C@H]2C[C@@H]3CN(CC(=O)c4ccc(O)c(F)n4)C[C@@H]3C2)cc1

>  <TESTED_TARGET>
HEK293 cells expressing NR1/NR2B (Homo sapiens (Human), UniProt Q05586+Q13224)

>  <pIC50>
< 5.00

$$$$
>  <STRUCTURE>
Cc1ccc(O[C@H]2C[C@@H]3CN(CC(=O)c4ccc(O)cn4)C[C@@H]3C2)c(F)c1

>  <TESTED_TARGET>
HEK293 cells expressing NR1/NR2B (Homo sapiens (Human), UniProt Q05586+Q13224)

>  <pIC50>
6.00 to 7.00

$$$$
>  <STRUCTURE>
Oc1ccc([C@@H](O)CN2C[C@H]3C[C@H](Oc4cccnc4F)C[C@H]3C2)nc1

>  <TESTED_TARGET>
HEK293 cells expressing NR1/NR2B (Homo sapiens (Human), UniProt Q05586+Q13224)

>  <pIC50>
> 7.00

$$$$

----------
Listing of entries alongside the reported pIC50.
Biological target: HEK293 cells expressing NR1/NR2B (Homo sapiens (Human), UniProt Q05586+Q13224)
Test: NR2B NAM Assay (FDSS Ca2+ influx cell assay)
Details: NR2B NAM assay, class of inhibitory concentration; read-out: Activity Category
Protocol: Cell Culture and plating: HEK293 cells expressing NR1/NR2B (Chantest, Cleveland, Ohio) were grown to 70-80% confluency as an adherent monolayer in standard tissue culture flasks at 37° C., 5% CO2 per supplier's instructions. […] After induction, cell culture medium was removed and cells were rinsed once with Ca^2+ and Mg^2+-free Dulbecco's phosphate buffered saline. […] Following two washes in Ca^2+/Mg^2+-free HBSS with 20 mM HEPES (HHnoCa), cells were counted and viability assessed using trypan blue. […]
pIC50: −log10 of the molar value.

>  <MOLECULE>
Oc1ccc(C(O)CN2C[C@H]3C[C@H](Oc4ccncc4)C[C@H]3C2)cc1 (stereo partly shown)

>  <pIC50>
5.00 to 6.00

$$$$
>  <MOLECULE>
COc1ccc(O[C@H]2C[C@@H]3CN(CC(=O)c4ccc(O)cc4)C[C@@H]3C2)cc1

>  <pIC50>
> 7.00

$$$$
>  <MOLECULE>
COc1cccc(F)c1O[C@H]1C[C@@H]2CN(CC(=O)c3ccc(O)cc3)C[C@@H]2C1

>  <pIC50>
6.00 to 7.00

$$$$
>  <MOLECULE>
Oc1ccc(C(O)CN2C[C@H]3C[C@H](Oc4cc(F)cc(F)c4)C[C@H]3C2)nc1 (stereo partly shown)

>  <pIC50>
> 7.00

$$$$

----------
Molecular target: HEK293 cells expressing NR1/NR2B (Homo sapiens (Human), UniProt Q13224)
Sequence (Q13224 27-1484, other chains not shown): as above
Assay: NR2B NAM Assay (FDSS Ca2+ influx cell assay)
Type: cell-based
Details: Ca2+ influx inhibition relative to MK801; 3 μM glutamate, 3 μM glycine, 1 mM Ca2+; read-out: NR2B NAM IC50

>  <COMPOUND>
COc1ccc(S[C@H]2C[C@@H]3CN(CC(=O)c4ccc(O)cc4)C[C@@H]3C2)cc1

>  <TESTED_TARGET>
HEK293 cells expressing NR1/NR2B (Homo sapiens (Human), UniProt Q13224)

>  <IC50>
230 nM

$$$$
>  <COMPOUND>
Oc1ccc(C(O)CN2C[C@H]3C[C@H](Sc4ccc(F)cc4)C[C@H]3C2)cc1 (some centres unmarked)

>  <TESTED_TARGET>
HEK293 cells expressing NR1/NR2B (Homo sapiens (Human), UniProt Q13224)

>  <IC50>
19.2 nM

$$$$
>  <COMPOUND>
COc1ccc(O[C@H]2C[C@@H]3CN(CC(O)c4ccc(O)c(OC)n4)C[C@@H]3C2)cc1 (some centres unmarked)

>  <TESTED_TARGET>
HEK293 cells expressing NR1/NR2B (Homo sapiens (Human), UniProt Q13224)

>  <IC50>
1330 nM

$$$$
>  <COMPOUND>
COc1cccc(F)c1O[C@H]1C[C@@H]2CN(CC(O)c3ccc(O)cn3)C[C@@H]2C1 (some centres unmarked)

>  <TESTED_TARGET>
HEK293 cells expressing NR1/NR2B (Homo sapiens (Human), UniProt Q13224)

>  <IC50>
163 nM

$$$$
>  <COMPOUND>
O=C(CN1C[C@H]2C[C@@H](Oc3cc(F)cc(F)c3)C[C@H]2C1)c1ccc(O)cn1

>  <TESTED_TARGET>
HEK293 cells expressing NR1/NR2B (Homo sapiens (Human), UniProt Q13224)

>  <IC50>
10000 nM

$$$$
>  <COMPOUND>
COc1ccc(O[C@@H]2C[C@@H]3CN(CC(=O)c4ccc(O)cc4)C[C@@H]3C2)cc1

>  <TESTED_TARGET>
HEK293 cells expressing NR1/NR2B (Homo sapiens (Human), UniProt Q13224)

>  <IC50>
57.3 nM

$$$$
>  <COMPOUND>
Oc1ccc(C(O)CN2C[C@H]3C[C@H](Sc4ccccc4)C[C@H]3C2)cc1 (some centres unmarked)

>  <TESTED_TARGET>
HEK293 cells expressing NR1/NR2B (Homo sapiens (Human), UniProt Q13224)

>  <IC50>
9.36 nM

$$$$
>  <COMPOUND>
Oc1ccc(C(O)CN2C[C@H]3C[C@H](Oc4cccnc4F)C[C@H]3C2)cc1F (some centres unmarked)

>  <TESTED_TARGET>
HEK293 cells expressing NR1/NR2B (Homo sapiens (Human), UniProt Q13224)

>  <IC50>
21.7 nM

$$$$
>  <COMPOUND>
COc1ccc(O[C@@H]2C[C@@H]3CN(CC(O)c4ccc(O)c(F)c4)C[C@@H]3C2)cc1 (some centres unmarked)

>  <TESTED_TARGET>
HEK293 cells expressing NR1/NR2B (Homo sapiens (Human), UniProt Q13224)

>  <IC50>
83.9 nM

$$$$
>  <COMPOUND>
Cc1ccc(O[C@H]2C[C@@H]3CN(CC(O)c4ccc(O)c(F)c4)C[C@@H]3C2)cn1 (some centres unmarked)

>  <TESTED_TARGET>
HEK293 cells expressing NR1/NR2B (Homo sapiens (Human), UniProt Q13224)

>  <IC50>
90 nM

$$$$
>  <COMPOUND>
N#Cc1ccc(O[C@H]2C[C@@H]3CN(CC(=O)c4ccc(O)cn4)C[C@@H]3C2)cc1

>  <TESTED_TARGET>
HEK293 cells expressing NR1/NR2B (Homo sapiens (Human), UniProt Q13224)

>  <IC50>
10000 nM

$$$$
>  <COMPOUND>
O=C(CN1C[C@H]2C[C@H](Oc3c(F)cccc3F)C[C@H]2C1)c1ccc(O)cn1

>  <TESTED_TARGET>
HEK293 cells expressing NR1/NR2B (Homo sapiens (Human), UniProt Q13224)

>  <IC50>
1080 nM

$$$$
>  <COMPOUND>
Cc1ccc(O[C@H]2C[C@@H]3CN(CC(=O)c4ccc(O)cc4)C[C@@H]3C2)c(F)c1

>  <TESTED_TARGET>
HEK293 cells expressing NR1/NR2B (Homo sapiens (Human), UniProt Q13224)

>  <IC50>
210 nM

$$$$
>  <COMPOUND>
N#Cc1ccc(O[C@@H]2C[C@@H]3CN(CC(=O)c4ccc(O)cn4)C[C@@H]3C2)cc1

>  <TESTED_TARGET>
HEK293 cells expressing NR1/NR2B (Homo sapiens (Human), UniProt Q13224)

>  <IC50>
10000 nM

$$$$
>  <COMPOUND>
Cc1ccc(O[C@H]2C[C@@H]3CN(CC(=O)c4ccc(O)cc4)C[C@@H]3C2)cn1

>  <TESTED_TARGET>
HEK293 cells expressing NR1/NR2B (Homo sapiens (Human), UniProt Q13224)

>  <IC50>
84.5 nM

$$$$
>  <COMPOUND>
O=C(CN1C[C@H]2C[C@@H](Oc3ccc(F)cc3)C[C@H]2C1)c1ccc(O)cc1

>  <TESTED_TARGET>
HEK293 cells expressing NR1/NR2B (Homo sapiens (Human), UniProt Q13224)

>  <IC50>
53.4 nM

$$$$
>  <COMPOUND>
Oc1ccc(C(O)CN2C[C@H]3C[C@H](Oc4ccc(F)cc4)C[C@H]3C2)nc1 (some centres unmarked)

>  <TESTED_TARGET>
HEK293 cells expressing NR1/NR2B (Homo sapiens (Human), UniProt Q13224)

>  <IC50>
4.41 nM

$$$$

These measurements were taken from patent US10239835B2.
